target: human OX2R (Homo sapiens, UniProt O43614); construct: expressed in transfected cells; host or cells: CHO (Chinese hamster ovary) cells, line CHOOX2R, co-expressing NFAT-luciferase; assay: Agonist activity against OX2R: intracellular calcium (Fura-2AM, FDSS7000) in CHOOX2R cells; format: cell-based; conditions: test compound 1.0 μM; relative to orexin-A as full agonist (100%)
Sequence (O43614 whole entry): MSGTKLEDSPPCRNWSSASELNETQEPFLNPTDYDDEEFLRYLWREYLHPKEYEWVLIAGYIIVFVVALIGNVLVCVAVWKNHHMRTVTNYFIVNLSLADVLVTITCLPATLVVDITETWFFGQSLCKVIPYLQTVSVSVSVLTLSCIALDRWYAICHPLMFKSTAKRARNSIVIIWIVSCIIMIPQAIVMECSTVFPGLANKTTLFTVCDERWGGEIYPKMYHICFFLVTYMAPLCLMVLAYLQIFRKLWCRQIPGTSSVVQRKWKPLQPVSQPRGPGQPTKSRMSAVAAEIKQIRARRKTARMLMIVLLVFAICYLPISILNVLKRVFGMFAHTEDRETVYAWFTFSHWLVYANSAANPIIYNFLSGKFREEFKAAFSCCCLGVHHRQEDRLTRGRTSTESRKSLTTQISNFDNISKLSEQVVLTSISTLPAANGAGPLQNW
assay.endpoint: Response (%) OX2R
Please state the figure in %; there is no need to write the unit.

Returns the measured Response (%) OX2R for the input compound. Input: COc1ccc(-c2cccc(C(=O)N(C)C)c2)cc1S(=O)(=O)Nc1cccc(NS(C)(=O)=O)c1 [Example 89] 8

Entry under review: CN(C)C(=O)c1cccc(-c2ccc(O)c(S(=O)(=O)Nc3cccc(NC(=O)Nc4cccc(N(C)C)c4)c3)c2)c1 [Example 115] . Reported Response (%) OX2R? 8

// returns reported Response (%) OX2R for input CCN(Cc1cccnc1)C(=O)c1ccc(OC)c(S(=O)(=O)Nc2cccc(NC(=O)Nc3ccccc3N(C)C)c2)c1 [Example 113] 6

Would you mind telling me what Response (%) OX2R value was observed for CCN(Cc1ccccc1)C(=O)c1ccc(OC)c(S(=O)(=O)Nc2cccc(NC(=O)Nc3ccc(N(C)C)cc3)c2)c1 [Example 110] ? 86

Can you share its Response (%) OX2R? I mean this compound: COc1ccc(-c2cccc(C(=O)N(C)C)c2)cc1S(=O)(=O)Nc1cccc(N2CCN(c3ccc(N(C)C)cc3)C2=O)c1 [Example 131] 96

Query (compound): CCCOc1ccc(-c2cccc(C(=O)N(C)C)c2)cc1S(=O)(=O)Nc1cccc(NC(=O)Nc2cccc(N(C)C)c2)c1 [Example 120] ; field requested: Response (%) OX2R 84

====

Consider the following compounds; for each one, report its Response (%) OX1R.
Molecular target: human OX1R (Homo sapiens, UniProt O43613)
Construct: expressed in transfected cells; host or cells: CHO (Chinese hamster ovary) cells, line CHOOX1R, co-expressing NFAT-luciferase
Sequence (O43613 1-425): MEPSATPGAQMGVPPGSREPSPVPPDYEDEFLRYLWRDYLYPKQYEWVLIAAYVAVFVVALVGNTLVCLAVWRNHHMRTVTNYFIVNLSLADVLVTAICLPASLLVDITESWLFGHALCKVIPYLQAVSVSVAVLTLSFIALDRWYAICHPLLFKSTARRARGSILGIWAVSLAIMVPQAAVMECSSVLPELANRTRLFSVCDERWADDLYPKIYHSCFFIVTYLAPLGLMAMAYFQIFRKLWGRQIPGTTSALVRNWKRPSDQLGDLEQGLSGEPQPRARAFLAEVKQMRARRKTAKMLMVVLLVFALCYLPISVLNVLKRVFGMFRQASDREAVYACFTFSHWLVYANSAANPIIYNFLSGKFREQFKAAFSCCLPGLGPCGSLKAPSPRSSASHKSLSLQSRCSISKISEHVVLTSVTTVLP
Assay: Agonist activity against OX1R: intracellular calcium (Fura-2AM, FDSS7000) in CHOOX1R cells
Format: cell-based
Settings: test compound 10 μM; relative to orexin-A as full agonist (100%)
Number in %, nothing else.

Query (compound): COc1ccc(-c2cccc(C(=O)N(C)C)c2)cc1S(=O)(=O)Nc1cccc(N2CCN(c3ccccc3N(C)C)C2=O)c1 ; field requested: Response (%) OX1R 81

What does the record list as Response (%) OX1R for COc1cccc(Nc2c(Nc3cccc(NS(=O)(=O)c4cc(-c5cccc(C(=O)N(C)C)c5)ccc4OC)c3)c(=O)c2=O)c1 ? 7

Please report the recorded Response (%) OX1R for COc1ccc(-c2cccc(C(=O)N(C)C)c2)cc1S(=O)(=O)Nc1cccc(N2CCN(c3cccc(N(C)C)c3)C2=O)c1 . 6

Would you kindly share the measured Response (%) OX1R for COc1ccc(-c2cccc(C(=O)N(C)C)c2)cc1S(=O)(=O)Nc1cccc(N=Nc2ccc(O)cc2NC(=O)OC(C)(C)C)c1 ? 9

Need Response (%) OX1R of COc1ccc(-c2cccc(C(=O)N(C)C)c2)cc1S(=O)(=O)Nc1cccc(N2CCCN(c3ccccc3)C2=O)c1 , thanks. 46

Give its Response (%) OX1R value. Item: COc1ccc(-c2cccc(C(=O)N(C)C)c2)cc1S(=O)(=O)Nc1cccc(NC(=O)Nc2cccc(N(C)C)c2)n1 8

====

target: human OX1R (Homo sapiens, UniProt O43613); construct: expressed in transfected cells; host or cells: CHO (Chinese hamster ovary) cells, line CHOOX1R, co-expressing NFAT-luciferase; assay: Agonist activity against OX1R: intracellular calcium (Fura-2AM, FDSS7000) in CHOOX1R cells; type: cell-based; conditions: test compound 0.1 μM; relative to orexin-A as full agonist (100%)
assay.endpoint: Response (%) OX1R

Lookup: Response (%) OX1R / human OX1R (Homo sapiens, UniProt O43613) / COc1ccc(-c2cccc(C(=O)N(C)C)c2)cc1S(=O)(=O)Nc1cccc(NS(=O)(=O)c2cccc(F)c2)c1 7%

Form field - read-out: Response (%) OX1R; system: human OX1R (Homo sapiens, UniProt O43613); submitted item: COc1ccc(C(=O)Nc2cccc(N(C)C)c2)cc1S(=O)(=O)Nc1cccc(NC(=O)Nc2cccc(N(C)C)c2)c1 8%

Missing value: Response (%) OX1R, human OX1R (Homo sapiens, UniProt O43613), entry CCN(Cc1cccnc1)C(=O)c1ccc(OC)c(S(=O)(=O)Nc2cccc(NC(=O)Nc3cccc(N(C)C)c3)c2)c1 . Fill in? <5%

Hi! What's the reported Response (%) OX1R for COc1ccc(-c2cccc(C(=O)N(C)C)c2)cc1S(=O)(=O)Nc1ccc(NC(=O)Nc2cccc(N(C)C)c2)cc1 on human OX1R (Homo sapiens, UniProt O43613)? <5%

====

Kindly supply the reported Response (%) OX2R values for the records listed here.
molecular target: human OX2R (Homo sapiens, UniProt O43614); construct: expressed in transfected cells; host or cells: CHO (Chinese hamster ovary) cells, line CHOOX2R, co-expressing NFAT-luciferase; test: Agonist activity against OX2R: intracellular calcium (Fura-2AM, FDSS7000) in CHOOX2R cells; format: cell-based; conditions: test compound 1.0 μM; relative to orexin-A as full agonist (100%)
Kindly provide the numeric value in % only, without the unit symbol.

Response (%) OX2R lookup needed for COc1ccc(C(=O)NCc2cccnc2)cc1S(=O)(=O)Nc1cccc(NC(=O)Nc2cccc(N(C)C)c2)c1 , thanks. 27

Suppose we examine the molecule CCN(Cc1ccccc1)C(=O)c1ccc(OC)c(S(=O)(=O)Nc2cccc(NC(=O)Nc3cccc(N(C)C)c3)c2)c1 ; what Response (%) OX2R value has been reported? 89

Entry COc1ccc(-c2cccc(C(=O)N(C)C)c2)cc1S(=O)(=O)Nc1cccc(NS(=O)(=O)Nc2cccc(C)c2)c1 has what Response (%) OX2R? 56

Consider the molecule shown here: CCN(Cc1cccnc1)C(=O)c1ccc(OC)c(S(=O)(=O)Nc2cccc(NC(=O)Nc3ccc(N(C)C)cc3)c2)c1 What is its recorded Response (%) OX2R? 88

Name the reported Response (%) OX2R value associated with the molecule COc1ccc(-c2cccc(C(=O)N(C)C)c2)cc1S(=O)(=O)Nc1cccc(N(C)C(=O)N(C)c2cccc(N(C)C)c2)c1 37

# lookup: Response (%) OX2R of COc1ccc(C(=O)NCc2ccccc2)cc1S(=O)(=O)Nc1cccc(NC(=O)Nc2cccc(N(C)C)c2)c1 7

So what does the record say about Response (%) OX2R for COc1ccc(-c2cccc(C(=O)N(C)C)c2)cc1S(=O)(=O)Nc1cccc(N2CCN(c3ccccc3)C2=O)c1 ? 77

Need Response (%) OX2R, item COc1ccc(-c2cccc(C(=O)N(C)C)c2)cc1S(=O)(=O)Nc1cccc(NC(=O)Nc2cccc(N(C)C)c2)c1OC 111

Quick check: Response (%) OX2R of CCOc1ccc(-c2cccc(C(=O)N(C)C)c2)cc1S(=O)(=O)Nc1cccc(NC(=O)Nc2cccc(N(C)C)c2)c1 ? 85

Which Response (%) OX2R reading was recorded for the molecule CCN(Cc1cccnc1)C(=O)c1ccc(OC)c(S(=O)(=O)Nc2cccc(NC(=O)Nc3cccc(N(C)C)c3)c2)c1 ? 97

Give the measured Response (%) OX2R of COc1ccc(-c2cccc(C(=O)N(C)C)c2)cc1S(=O)(=O)Nc1cccc(N2CCCN(c3ccccc3N(C)C)C2=O)c1 . 81

# get_value(readout='Response (%) OX2R', item= COc1ccc(-c2cccc(C(=O)N(C)C)c2)cc1S(=O)(=O)Nc1cccc(Nc2c(Nc3ccc(C)cc3)c(=O)c2=O)c1 ) 6

====

Exercise: for every item that follows, state its recorded Response (%) OX1R.
biological target: human OX1R (Homo sapiens); construct: expressed in transfected cells; host or cells: CHO (Chinese hamster ovary) cells, line CHOOX1R, co-expressing NFAT-luciferase; test: Agonist activity against OX1R: intracellular calcium (Fura-2AM, FDSS7000) in CHOOX1R cells; assay type: cell-based; conditions: 10 μM test compound; relative to orexin-A as full agonist (100%)
State the answer as a number, implicitly in %.

I'd like to know its Response (%) OX1R. The compound in question is COc1ccc(-c2cccc(C(=O)N(C)C)c2)cc1S(=O)(=O)Nc1cccc(NC(=O)C[S+]([O-])C(c2ccccc2)c2ccccc2)c1 (stereo not drawn) 107

GET /values?readout=Response (%) OX1R&item= COc1ccc(-c2cccc(C(=O)N(C)C)c2)cc1S(=O)(=O)Nc1cccc(NC(=O)c2ccc(N(C)C)cc2)c1 27
